Tested on: barnyardgrass (Echinochloa crus-galli)
Experiment: Test G Post-Emergence Protocol
Format: in vivo
Settings: Echinochloa crus-galli, post-emergence, 312 h, 15.625 g ai/ha, evaluated after 13 days (100=total damage to plant; 0=no damage to plant), read-out: Barnyardgrass damage rating
property-measured: pest or weed control at 15.625 g/ha (%)

| compound | property-measured | reported-measurement |
| --- | --- | --- |
| CN1C[C@@H](c2ccc(C(F)(F)F)cc2)[C@H](C(=O)Nc2cscn2)C1=O (racemic) | pest or weed control at 15.625 g/ha | 0 |
| CN1C[C@@H](c2ccc(C(F)(F)F)cc2)[C@H](C(=O)Nc2ccccc2)C1=O (racemic) | pest or weed control at 15.625 g/ha | 10 |
| CN1C[C@@H](c2cc(Cl)nc(C(F)(F)F)c2)[C@H](C(=O)Nc2cccc(F)c2F)C1=O (racemic) | pest or weed control at 15.625 g/ha | 50 |
